Ref: patent US10407429B2

System: coxsackie B5virus
procedure-summary: Antiviral CPE assay in mammalian cell culture
Assay type: cell-based
measurement-setup: read-out: inhibition capacity (IC50) B5
pIC50: −log10 of the molar value.

{"columns": ["compound", "pIC50"],
 "data": [
  ["COc1ccc(-c2c(C)nn3c(NCc4cccc(S(C)(=O)=O)c4)nc(C)nc23)cc1OC", "> 8.00"],
  ["COc1ccc(-c2c(C)nn3c(NCc4ccc(C)cc4)nc(C)nc23)cc1OC", "> 7.00"],
  ["COc1ccc(-c2c(C)nn3c(NCC4CCCO4)nc(C)nc23)cc1OC (centres unmarked)", "> 6.00"],
  ["CCC(=O)NS(=O)(=O)c1ccc(CNc2nc(C)nc3c(-c4ccc(OC)c(OC)c4)c(C)nn23)cc1", "< 6.00"],
  ["COc1ccc(-c2c(C)nn3c(NCc4ccc(C)o4)nc(C)nc23)cc1OC", "> 7.00"],
  ["COc1ccc(-c2c(C)nn3c(NCc4cnco4)nc(C)nc23)cc1OC", "> 6.00"],
  ["COc1ccc(CNc2nc(C)nc3c(-c4ccc(OC)c(OC)c4)c(C)nn23)cn1", "> 7.00"],
  ["COc1ccc(-c2c(C)nn3c(NCc4ccc(S(N)(=O)=O)cc4)nc(C)nc23)cc1OC", "> 8.00"],
  ["COc1ccc(-c2c(C)nn3c(NCCc4ccc(Cl)cc4)nc(C)nc23)cc1OC", "> 6.00"],
  ["COc1ccc(-c2c(C)nn3c(NCC4CCCCC4)nc(C)nc23)cc1OC", "> 6.00"],
  ["COc1ccc(-c2c(C)nn3c(NCc4ccc(C(C)C)cc4)nc(C)nc23)cc1OC", "> 6.00"],
  ["CNS(=O)(=O)c1ccc(CNc2nc(C)nc3c(-c4ccc(OC)c(OC)c4)c(C)nn23)cc1", "> 6.00"],
  ["COc1ccc(-c2c(C)nn3c(NCc4ccnnc4)nc(C)nc23)cc1OC", "> 6.00"],
  ["COc1ccc(-c2c(C)nn3c(NCc4ccc(Cl)cc4)nc(C)nc23)cc1OC", "> 6.00"]
]}
